- Tested on: K562
- EXPERIMENT NOTES: NCI tumour cell line growth inhibition, 48 h
Active and inactive are the calls of the source. No stated cut-off is given here; in the data, active = GI50 up to about 1.1 µM and inactive = higher.
# key: entry, value: GI50
READOUT: GI50

MOLECULE	STUDY TARGET	RESULT VALUE
COc1ccc2c(c1)/C(=C\c1c(-c3ccccc3)nc3n1CCS3)C(=O)N2	K562	2.94 µM (inactive)
O=C(/N=N/c1cc(Cl)ccc1Cl)NNc1cc(Cl)ccc1Cl	K562	14.6 µM (inactive)
O=c1[nH]ncc2[nH]c3c(c12)CCCc1ccccc1-3	K562	12.9 µM (inactive)
CCOC(=O)C(Cc1ccc2c(c1)CCC2)(Cc1ccc2c(c1)CCC2)C(=O)OCC	K562	58.5 µM (inactive)
CC1(C)C[C@@H]2C1CCC1(C)CC2(O)CC[C@H]1O (stereo not given in full)	K562	> 100 µM (inactive)
CC(=O)Nc1ccc(/C=C/c2ccc(NC(=O)Nc3ccc(/C=C/c4ccc(NC(C)=O)cc4S(=O)(=O)O)c(S(=O)(=O)O)c3)cc2S(=O)(=O)O)c(S(=O)(=O)O)c1	K562	> 100 µM (inactive)
CCN(CC)c1ccc2c(c1)OC(=O)C(c1nnc(-c3ccc([N+](=O)[O-])cc3)o1)C2 (stereo not given)	K562	38 µM (inactive)
N#CCC(=O)N/N=C1/C(=O)N(c2cc(Cl)ccc2Cl)C(=O)C(=O)C1c1nc2ccccc2s1 (stereo not given)	K562	> 100 µM (inactive)
COc1ccc2c(c1)OC(c1cccnc1)C(c1ccccc1)C2=O (stereo not given)	K562	> 100 µM (inactive)
Cc1ccc(C2CC(c3ccc([N+](=O)[O-])cc3)=Nc3ccccc3S2)cc1 (stereo not given)	K562	13.4 µM (inactive)
CCCCCC(O)(CCCCC)CCCCCCCCC1=C(O)C(=O)c2ccccc2C1=O	K562	3.08 µM (inactive)
Cc1ccc(C(=O)Nc2ncn(C3CC(O)C(CO)O3)c(=O)n2)cc1 (stereo not given)	K562	> 100 µM (inactive)
CCC(C)(O)c1cnc(CC(C)C)c(=O)n1O (stereo not given)	K562	18.5 µM (inactive)
NC1=NN(c2ccccc2)C(=O)C1C(=O)CCC(=O)Nc1cccc(C(F)(F)F)c1 (stereo not given)	K562	35.2 µM (inactive)
C[C@]12CC[C@@H]3c4cc(Br)c(O)c(Br)c4CC[C@H]3[C@@H]1CC(Br)C2=O (stereo not given in full)	K562	2.29 µM (inactive)
CC(C)=CC(Cc1ccccc1)S(=O)(=O)c1nc2ccccc2s1 (stereo not given)	K562	12.6 µM (inactive)
CC(C)(C)C(=O)C(C(=O)c1ccccc1)C(=O)C(C)(C)C	K562	> 100 µM (inactive)
CCOC(=O)NC(Nc1ccc(C(=O)O)cc1)(C(F)(F)F)C(F)(F)F	K562	> 100 µM (inactive)
COc1ccc(C(=O)Cc2cc(OC)ccc2OC)cc1	K562	> 100 µM (inactive)
Cc1cc(N(CCC#N)CCC#N)ccc1C(/N=N/c1ccc([N+](=O)[O-])cc1)=N\NC(=O)c1ccccc1	K562	22.9 µM (inactive)
